Data provenance: ChEMBL document CHEMBL1212881

// 5-hydroxytryptamine receptor 2B (Homo sapiens, UniProt P41595) pKi records
One number for each entry, as −log10 of the molar value.

Below: 6 compounds and their reported pKi.
{"smiles-repr": "COc1ccccc1CN1CCN(Cc2cc3ccccc3o2)CC1", "assay-target": "5-hydroxytryptamine receptor 2B (Homo sapiens, UniProt P41595)", "pKi": 8.01}
{"smiles-repr": "CCCOc1ccccc1CN1CCN(Cc2cc3ccccc3o2)CC1", "assay-target": "5-hydroxytryptamine receptor 2B (Homo sapiens, UniProt P41595)", "pKi": 6.94}
{"smiles-repr": "COc1cccc(CN2CCN(Cc3cc4ccccc4o3)CC2)c1", "assay-target": "5-hydroxytryptamine receptor 2B (Homo sapiens, UniProt P41595)", "pKi": 7.55}
{"smiles-repr": "FCCCOc1ccc(CN2CCN(Cc3cc4ccccc4o3)CC2)cc1", "assay-target": "5-hydroxytryptamine receptor 2B (Homo sapiens, UniProt P41595)", "pKi": 6.63}
{"smiles-repr": "c1ccc(CN2CCN(Cc3cc4ccccc4o3)CC2)cc1", "assay-target": "5-hydroxytryptamine receptor 2B (Homo sapiens, UniProt P41595)", "pKi": 6.30}
{"smiles-repr": "FCCOc1cccc(CN2CCN(Cc3cc4ccccc4o3)CC2)c1", "assay-target": "5-hydroxytryptamine receptor 2B (Homo sapiens, UniProt P41595)", "pKi": 6.61}

Give pKi for each of the items listed below.
1. CCOc1ccccc1CN1CCN(Cc2cc3ccccc3o2)CC1
2. CCOc1cccc(CN2CCN(Cc3cc4ccccc4o3)CC2)c1

Result:
1: 7.14; 2: 6.52
